Tested on: P388
Assay: Cytotoxicity against mouse P388 cells assessed as inhibition of cell growth
Assay type: functional, cell-based
value_type: pIC50
Numbers only, as −log10 of the molar value.

## Task Look up and report measured pIC50 for this entry: `Cc1c(O)cc2c(c1O)C(=O)C1=C(OC(C)(C)[C@H](Cl)C1)C2=O`
## Result 5.01

###

Assay: Antioxidant activity assessed as DPPH radical scavenging activity
Assay type: functional
value_type: pIC50
One number for each entry, as −log10 of the molar value.

## Task Tell me its pIC50 given `O=Cc1cc(Br)c(O)c(O)c1Cc1ccc(O)c(Br)c1` as the entry.
## Result 5.46

###

Tested on: HeLa
Test: Cytotoxicity against human HeLa cells assessed as inhibition of cell growth
Assay type: functional, cell-based
value_type: pIC50
Numbers only, as −log10 of the molar value.

## Task Give recorded pIC50. `CO[C@H]1C[C@@H](O)[C@H](OC)c2oc3c4c5c(c(O)c3c(=O)c21)-c1c(cc2c(Cl)c(C)n(N)c(=O)c2c1O)C[C@H]5OCO4`
## Result 10.40
